Catalogue of activity change, negative = inhibition readings, one per entry.
assay-overview: InCell qHTS Assay for Inhibitors of the mTORC1 Signaling Pathway in MEF (Tsc2-/-, p53-/-) Cells: Hit Validation;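 note: phospho-S6 Ser235/236 signal normalized to propidium iodide cell count per well; nearly all actives have a fitted effect of over 75% in size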
condition-info: phospho-rpS6 immunofluorescence, 24 h; at 38.3 µM (top of the series)
Records with an inconclusive call do not appear.
Kindly answer with a numeric value in %, unit omitted.

Reference set, count: 6
>  <compound>
CCn1c(=O)sc2cc(NS(=O)(=O)c3ccc(F)c(C)c3)ccc21

>  <output-unit>
%

>  <activity change, negative = inhibition>
-100

$$$$
>  <compound>
CCC1CCc2nc3sc(C(=O)Nc4cccc(F)c4)c(N)c3cc2C1 (stereo not given)

>  <output-unit>
%

>  <activity change, negative = inhibition>
-100

$$$$
>  <compound>
Cc1ccc(NC(=O)CSc2ccc(-c3ccccn3)nn2)cc1F

>  <output-unit>
%

>  <activity change, negative = inhibition>
-100

$$$$
>  <compound>
Cc1ccc(-n2ncc(C(=O)NCCCN3CCc4ccccc4C3)c2C2CCN(C(=O)OC(C)(C)C)CC2)c(C)c1

>  <output-unit>
%

>  <activity change, negative = inhibition>
-100

$$$$
>  <compound>
CSc1ccc(CCNC(=O)C(C)n2nc(C)c3sc4ccccc4c3c2=O)cc1 (stereo not given)

>  <output-unit>
%

>  <activity change, negative = inhibition>
-100

$$$$
>  <compound>
Cc1ccc(-c2csc(-c3cc4c([nH]c3=O)CC(c3ccccc3)CC4=O)n2)cc1 (stereo not given)

>  <output-unit>
%

>  <activity change, negative = inhibition>
-100

$$$$

Value of measured activity change, negative = inhibition for the entry CCCCN1C(=O)C(O)(c2c(C)[nH]c3ccccc23)c2cc(Br)ccc21 (stereo not given) : -21.8

Value of measured activity change, negative = inhibition for the entry CCOc1cc(-c2nnc(SCC(=O)NCc3ccccc3)nc2-c2ccc(OC)c(OCC)c2)ccc1OC : -100

Value of measured activity change, negative = inhibition for the entry COc1ccc(OC)c(Nc2c3c(nc4ccccc24)CCC3)c1 : -25.7

Value of measured activity change, negative = inhibition for the entry CCC1CCc2nc3sc(C(=O)Nc4ccc(C)cc4)c(N)c3cc2C1 (stereo not given) : -100

----------
Catalogue of Potency readings, one per entry.
assay-overview: InCell qHTS Assay for Inhibitors of the mTORC1 Signaling Pathway in MEF (Tsc2-/-, p53-/-) Cells: Hit Validation;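 note: phospho-S6 Ser235/236 signal normalized to propidium iodide cell count per well; nearly all actives have a fitted effect of over 75% in size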; note: potency is the fitted concentration of half-maximal effect
condition-info: phospho-rpS6 immunofluorescence, 24 h
Results filed as inconclusive are left out. Active and inactive are the calls of the source. The call rests on the fitted dose curve; in most records, active means well fitted inhibition curve with a large enough effect; inconclusive means small, poorly fitted or top-dose-only effect; inactive means no such curve, though single readings can be large or run the other way.

>  <molecule>
CN(c1ccccc1)S(=O)(=O)c1ccc(NC(=O)c2nc(S(C)(=O)=O)ncc2Cl)cc1

>  <Potency>
2.07 µM (active)

$$$$
>  <molecule>
CCOC(=O)Cn1c(=O)c2c(nc(N3CCOCC3)n2Cc2ccccc2)n(C)c1=O

>  <Potency>
11.7 µM (active)

$$$$
>  <molecule>
CCS(=O)(=O)c1ncc(Cl)c(C(=O)NCc2ccc(OC)cc2)n1

>  <Potency>
4.65 µM (active)

$$$$
>  <molecule>
COc1ccc2nc(NC(=O)c3nc(S(=O)(=O)Cc4ccccc4)ncc3Cl)sc2c1

>  <Potency>
1.65 µM (active)

$$$$
>  <molecule>
CCCCn1c(=N)n(CCOc2ccccc2OC)c2ccccc21

>  <Potency>
7.36 µM (active)

$$$$
>  <molecule>
CCC(C)S(=O)(=O)c1oc(-c2ccc(F)cc2)nc1S(=O)(=O)c1ccc(F)cc1 (stereo not given)

>  <Potency>
1.47 µM (active)

$$$$

Value of measured Potency for the entry CCOCc1cc(CN2CCN(c3ccccc3OC)CC2)c(O)c2ncccc12 : 2.07 µM (active)

Value of measured Potency for the entry O=C(Nc1ccc2oc(-c3ccc4ccccc4c3)nc2c1)c1cc(Br)ccc1Cl : 18.5 µM (active)

Value of measured Potency for the entry CC(C)CCNC(=O)C(=O)Nc1c2c(nn1-c1ccc(Cl)cc1)CSC2 : 18.5 µM (active)

Value of measured Potency for the entry CCc1ccc(NC(=O)Cn2c(=O)n(-c3ccc(OC)cc3)c(=O)c3ccc(C(=O)NCc4ccc(C)cc4)cc32)cc1 : 13.1 µM (active)
